- Test system: c-Met
- Sequence (P08581 25-307 limits assumed): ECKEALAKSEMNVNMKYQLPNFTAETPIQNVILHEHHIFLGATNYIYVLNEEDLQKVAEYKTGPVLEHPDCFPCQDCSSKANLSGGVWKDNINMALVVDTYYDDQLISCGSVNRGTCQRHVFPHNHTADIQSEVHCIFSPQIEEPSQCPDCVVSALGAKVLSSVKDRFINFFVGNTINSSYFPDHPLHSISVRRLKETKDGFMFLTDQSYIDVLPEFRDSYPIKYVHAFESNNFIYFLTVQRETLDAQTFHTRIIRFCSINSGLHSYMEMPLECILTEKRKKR
- Sequence (P08581 308-932 limits assumed): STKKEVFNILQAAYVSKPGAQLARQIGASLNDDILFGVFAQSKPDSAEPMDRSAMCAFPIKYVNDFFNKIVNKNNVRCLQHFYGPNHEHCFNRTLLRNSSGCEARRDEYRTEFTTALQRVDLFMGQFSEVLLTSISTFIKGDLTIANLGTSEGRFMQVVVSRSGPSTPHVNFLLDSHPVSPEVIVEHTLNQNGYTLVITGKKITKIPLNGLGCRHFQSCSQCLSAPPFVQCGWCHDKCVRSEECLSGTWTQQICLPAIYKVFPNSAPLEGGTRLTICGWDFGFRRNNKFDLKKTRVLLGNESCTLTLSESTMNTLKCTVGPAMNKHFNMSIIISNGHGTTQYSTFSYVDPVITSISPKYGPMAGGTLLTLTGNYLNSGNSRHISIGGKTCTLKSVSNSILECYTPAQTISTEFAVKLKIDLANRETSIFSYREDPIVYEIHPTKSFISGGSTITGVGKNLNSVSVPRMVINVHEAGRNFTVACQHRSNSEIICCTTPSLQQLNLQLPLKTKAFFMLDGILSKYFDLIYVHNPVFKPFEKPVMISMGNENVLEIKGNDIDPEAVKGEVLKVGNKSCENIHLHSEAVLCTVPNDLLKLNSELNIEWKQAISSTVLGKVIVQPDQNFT
- method notes: BRET analysis of c-Met dimerization on c-Met transfected CHO cells
- Format: cell-based
- setup conditions: CHO cells expressing C-Met-Rluc and C-Met-K1100A-YFP, supernatants
Overview of reported inhibition of dimerization across a group of molecules:
The response must be a number in % with no trailing unit.

>  <molecule>
223C4: murine anti-c-Met monoclonal antibody, IgG1 kappa; heavy chain SEQ ID No. 20, light chain SEQ ID No. 23 (antibody, V domains shown, mus musculus) VH: EVLLQQSGPELVKPGASVKIPCKASGYTFTDYNMDWVKQSHGMSLEWIGDINPNNGGTIFNQKFKGKATLTVDKSSSTAYMELRSLTSEDTAVYYCARGRYVGYYYAMDYWGQGTSVTVSS VL: DIQMTQSPASLSVSVGETVTITCRASENIYSNLAWYQQKQGKSPQLLVYAATNLVDGVPSRFSGSGSGTQYSLKINSLQSEDFGSYYCQHFWGPPYTFGGGTKLEIK

>  <measured property>
inhibition of dimerization

>  <measure unit>
%

>  <recorded number>
55

$$$$
>  <molecule>
227H1: murine anti-c-Met monoclonal antibody, IgG1 kappa; heavy chain SEQ ID No. 19, light chain SEQ ID No. 22 (antibody, V domains shown, mus musculus) VH: EVQLQQSGPELVKPGASMKISCKASGYSFTDYTLNWVKQSHGKTLEWIGLINPYNGGTTYNQKFKGKATLTVDKSSSTAYMELLSLTSEDSAVYYCAREEITKDFDFWGQGTTLTVSS VL: GIVLTQSPASLAVSLGQRATISCRVSESIDTYGNSFIHWYQQKPGQPPKLLIYRASNLESGIPARFSGSGSRTDFTLTINPVEADDSATYYCQQSNEDPFTFGSGTKLEMK

>  <measured property>
inhibition of dimerization

>  <measure unit>
%

>  <recorded number>
52

$$$$

We next turn to a different molecule, shown below.
# inhibition of dimerization (molecule: 224G11: murine anti-c-Met monoclonal antibody, IgG1 kappa; heavy chain SEQ ID No. 18, light chain SEQ ID No. 21 (antibody, V domains shown, mus musculus) VH: EVQLQQSGPELVKPGASVKISCKTSGYIFTAYTMHWVRQSLGESLDWIGGIKPNNGLANYNQKFKGKATLTVDKSSSTAYMDLRSLTSEDSAVYYCARSEITTEFDYWGQGTALTVSS VL: DIVLTQSPASLAVSLGQRATISCRASESVDSYANSFMHWYQQKPGQPPKLLIYRASNLESGIPARFSGSGSRTDFTLTINPVEADDVATYYCQQSKEDPLTFGSGTKLEMK ) is 32

The measured values listed here are drawn from patent US8871909B2.
